Please respond with reported OD value for every item in the list.
Target Desc: T1, human Nectin-4 extracellular antigen hNectin-4-His (human, UniProt Q96NY8 32-349)
T1 construct: C-terminal 8xHis tag included
T1 sequence: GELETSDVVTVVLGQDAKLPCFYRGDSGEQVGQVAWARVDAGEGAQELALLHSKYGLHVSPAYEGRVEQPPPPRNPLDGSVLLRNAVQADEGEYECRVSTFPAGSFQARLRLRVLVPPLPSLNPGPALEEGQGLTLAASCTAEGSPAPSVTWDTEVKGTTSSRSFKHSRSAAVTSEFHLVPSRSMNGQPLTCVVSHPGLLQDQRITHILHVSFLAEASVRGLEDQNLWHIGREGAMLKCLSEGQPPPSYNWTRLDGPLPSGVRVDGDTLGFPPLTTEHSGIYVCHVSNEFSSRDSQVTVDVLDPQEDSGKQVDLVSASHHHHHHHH
Protocol Text: ELISA, phage scFv supernatant 1:50
One number for each entry, in OD.

Use the examples below as a reference point.
Binder | Unit Of Measure | OD value
1G8-1B11 scFv (scFv, V domains shown, phage clone supernatant) VH: EVQLVESGGGLVQPGGSLRLSCAASGYNFSNYAMSWVRQAPGKGLEWVSAIDASGGDTRYADSVKGRFTISRDNSKNTLYLQMNSLRAEDTAVYYCARQTEDRSYGYDLDYWGQGTLVTVSS VL: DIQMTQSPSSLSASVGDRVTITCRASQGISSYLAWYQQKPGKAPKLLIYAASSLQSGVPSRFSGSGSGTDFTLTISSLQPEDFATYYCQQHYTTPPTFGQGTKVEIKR | OD | 1.58
1G8-1F11 scFv (scFv, V domains shown, phage clone supernatant) VH: EVQLVESGGGLVQPGGSLRLSCAASGDTFSSYAMSWVRQAPGKGLEWVSRISQTGGTTDYADSVKGRFTISRDNSKNTLYLQMNSLRAEDTAVYYCARQTEDRSYGYDLDYWGQGTLVTVSS VL: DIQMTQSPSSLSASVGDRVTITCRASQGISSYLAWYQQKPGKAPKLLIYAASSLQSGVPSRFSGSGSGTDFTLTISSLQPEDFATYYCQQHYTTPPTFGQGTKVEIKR | OD | 1.6

In the following, a different binder is considered.
What the record says about 1G8-2H8 scFv (scFv, V domains shown, phage clone supernatant) VH: EVQLVESGGGLVQPGGSLRLSCAASGDIFGSYAMSWVRQAPGKGLEWVSAISGSGGSTYYADSVKGRFTISRDNSKNTLYLQMNSLRAEDTAVYYCARQTEDRSYGYDLDYWGQGTLVTVSS VL: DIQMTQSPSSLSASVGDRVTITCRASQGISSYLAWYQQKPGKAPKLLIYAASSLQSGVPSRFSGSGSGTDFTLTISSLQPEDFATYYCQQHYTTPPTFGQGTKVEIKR : OD value is 1.57

Source of measurements: patent US20260144882A1
